# System: rat paw edema model
# protocol-description: Rat paw edema model (carrageenan), anti-inflammatory activity
# Assay type: in vivo, Sprague-Dawley (SD) rats
# condition-parameters: Table 6; 1 mg/kg IV; 6 h post-carrageenan
measured-attribute: Change in Paw Volume (mL)
Write the answer as a number in mL, unit excluded.

The compound CC(C)(C)Oc1ccc(C[C@@H]2NC(=O)[C@@H](Cc3ccc(-c4ccccc4)cc3)NC(=O)[C@H](Cc3cccs3)NC(=O)COc3ccc(cc3)C[C@@H](C(=O)O)NC2=O)cc1 on rat paw edema model: Change in Paw Volume was 1.34

----------
The reader will find reported IC50 values listed item by item below.
# measurement-target: TNFα / TNFα receptor (TNFα R1/Fc) (Homo sapiens, UniProt P01375)
# Construct: purchased R&D Systems
# Sequence (P01375 77-233 limits assumed, species assumed): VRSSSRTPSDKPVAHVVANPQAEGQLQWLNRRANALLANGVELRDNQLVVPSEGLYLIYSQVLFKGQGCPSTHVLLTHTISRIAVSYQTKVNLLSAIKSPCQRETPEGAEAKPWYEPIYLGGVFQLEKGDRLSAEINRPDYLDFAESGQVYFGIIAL
# protocol-description: Inhibition of binding of TNFα to the TNFα receptor (plate ELISA competition)
# condition-parameters: Table 2; read-out: Activity (IC50, inhibition of TNFα binding to TNFα R1/Fc)
Numbered stars: 1 amine (or outer) side, 2 acyl side, 3 side chain; on linkers, the order of the positions; unused ones are H or OH. Bridge positions count the residues as written; N and C are the ends. Square brackets hold non-standard residues; d marks the D form. Peptide text beside a SMILES is read from it. Bip = N[C@@H](Cc1ccc(-c2ccccc2)cc1)C(=O)O; Phe(4-NH2) = Nc1ccc(C[C@H](N)C(=O)O)cc1; Maleoyl = O=C(/C=C\C(=O)[*:2])[*:1]; d(hPhe) = N[C@H](CCc1ccccc1)C(=O)O; Cha = N[C@@H](CC1CCCCC1)C(=O)O; d2Thi = N[C@H](Cc1cccs1)C(=O)O; Suc = O=C(CCC(=O)[*:2])[*:1]

Solved cases below.
Record O=C1COc2ccc(cc2)C[C@@H](C(=O)N[C@H](Cc2ccc(O)cc2)C(=O)O)NC(=O)[C@H](CCc2ccccc2)NC(=O)[C@@H](Cc2ccc(-c3ccccc3)cc2)NC(=O)[C@H](Cc2ccc(-c3ccncc3)cc2)N1 [Compound 586] . Reported IC50: < 10 µM

Record CC(=O)N[C@@H]1CC(=O)Nc2ccc(cc2)C[C@@H](C(=O)O)NC(=O)[C@@H](Cc2ccccc2)NC(=O)[C@H](Cc2ccc(-c3ccccc3)cc2)NC(=O)[C@@H](Cc2cccs2)NC1=O [Compound 376] (Ac-[dD][d2Thi][Bip][dF][Phe(4-NH2)]-OH; lactam 1-5) . Reported IC50: 10 to 30 µM

Record CC(C)C[C@@H]1NC(=O)[C@H](Cc2ccc(-c3ccccc3)cc2)NC(=O)[C@@H](Cc2cccs2)NC(=O)CCC(=O)Nc2ccc(cc2)C[C@@H](C(=O)O)NC1=O [Compound 54] ([d2Thi][Bip]L[Phe(4-NH2)]-OH; linker N-4 via Suc) . Reported IC50: > 100 µM

Record O=C1COc2ccc(cc2)C[C@H](C(=O)O)NC(=O)[C@H](CCc2ccccc2)NC(=O)[C@@H](Cc2ccc(-c3ccccc3)cc2)NC(=O)[C@H](Cc2cccs2)N1 [Compound 673] . Reported IC50: < 10 µM

---
Record CN(CCS(=O)(=O)O)C(=O)[C@@H]1Cc2ccc(cc2)OCC(=O)N[C@@H](Cc2cccs2)C(=O)N[C@H](Cc2ccc(-c3ccccc3)cc2)C(=O)N[C@@H](CCc2ccccc2)C(=O)N1 [Compound 605] . Reported IC50: < 10 µM

Record O=C1COc2ccc(cc2)C[C@@H](C(=O)O)NC(=O)[C@@H](CCc2ccccc2)NC(=O)[C@H](Cc2ccc(Cl)cc2Cl)NC(=O)[C@@H](Cc2ccc(C(F)(F)F)cc2)N1 [Compound 148] . Reported IC50: 30 to 100 µM

Record O=C1/C=C\C(=O)N[C@@H](CC2CCCCC2)C(=O)N[C@@H](Cc2ccc(-c3ccccc3)cc2)C(=O)N[C@H](CCc2ccccc2)C(=O)N[C@H](C(=O)O)Cc2ccc(cc2)N1 [Compound 197] ([Cha][Bip][d(hPhe)][Phe(4-NH2)]-OH; linker N-4 via Maleoyl) . Reported IC50: < 10 µM

Record O=C(O)[C@@H]1Cc2ccc(cc2)NC(=O)[C@H](O)[C@@H](O)C(=O)N[C@H](Cc2cccs2)C(=O)N[C@@H](Cc2ccc(-c3ccccc3)cc2)C(=O)N[C@H](Cc2ccccc2)C(=O)N1 [Compound 4] . Reported IC50: 10 to 30 µM

Record O=C1COc2ccc(cc2)C[C@@H](C(=O)O)NC(=O)[C@H](Cc2ccc(O)cc2)NC(=O)[C@@H](Cc2ccc(-c3ccccc3)cc2)NC(=O)[C@H](Cc2cccs2)N1 [Compound 427] . Reported IC50: > 100 µM
